Test: Cytotoxicity in mammalian Cricetulus griseus CHO (Chinese hamster ovary) cells measured after 48 hr by MTT assay
Details: read-out: LD50
endpoint-label: CC50 at 48 h (mg/L)
Field format: number, assumed mg/L, no unit text.

Item `CC(C)c1cc2c(c(O)c1O)[C@@]1(C)CCCC(C)(C)[C@@H]1CC2=O` has what recorded CC50 at 48 h?
36

Item `CC(C)c1cc2c(c(O)c1O)C[C@@]13CCCC(C)(C)[C@@H]1C[C@@H]2O3` has what recorded CC50 at 48 h?
50.6

====

Test system: Leptinotarsa decemlineata
Assay: Mortality in adult Leptinotarsa decemlineata in host plant measured after 72 hr
Format: functional
Parameters: concentration or dose not given beside the values
Tick 1 if mortality is 30% or greater. Tick -1 if mortality is less than 30%.

Kindly determine if mortality recorded for `COc1c(O)c2c(c(O)c1C(C)C)C(=O)C[C@H]1C(C)(C)CCC[C@]21C` is above or exactly 30%.
-1

Kindly determine if mortality recorded for `COc1c(C(C)C)cc2c(c1O)[C@@]1(C)CCCC(C)(C)[C@@H]1CC2` is above or exactly 30%.
-1

Kindly determine if mortality recorded for `CC(C)c1cc2c(c(O)c1O)C[C@@]13CCCC(C)(C)[C@@H]1C[C@@H]2O3` is above or exactly 30%.
-1

Kindly determine if mortality recorded for `CC(C)c1cc2c(c(O)c1O)[C@@]1(C)CCCC(C)(C)C1=C(O)C2=O` is above or exactly 30%.
-1

Kindly determine if mortality recorded for `CC(C)c1cc2c(c(O)c1O)[C@@]1(C)CCCC(C)(C)[C@@H]1CC2=O` is above or exactly 30%.
1

====

I'd appreciate it if you could supply Activity values for the items below.
Tested on: Spodoptera littoralis
Assay: Effect on ingestion in L6 larvae Spodoptera littoralis assessed as consumption compound injected orally relative to control
Assay type: functional
Field format: number, assumed %, no unit text.

Item `COc1c(O)c2c(c(O)c1C(C)C)C(=O)C[C@H]1C(C)(C)CCC[C@]21C` has what recorded Activity?
119

Item `CC(C)c1cc2c(c(O)c1O)[C@@]1(C)CCCC(C)(C)C1=C(O)C2=O` has what recorded Activity?
107

Item `CC(C)c1cc2c(c(O)c1O)[C@@]1(C)CCCC(C)(C)[C@@H]1CC2=O` has what recorded Activity?
103

Item `COc1c(C(C)C)cc2c(c1O)[C@@]1(C)CCCC(C)(C)[C@@H]1CC2` has what recorded Activity?
91

====

Assay: Cytotoxicity in mammalian Cricetulus griseus CHO (Chinese hamster ovary) cells measured after 48 hr by MTT assay
Conditions: read-out: LD50
I'd appreciate it if you could supply CC50 at 48 h values for the items below.

Item `CC(C)c1cc2c(c(O)c1O)[C@@]1(C)CCCC(C)(C)C1=C(O)C2=O` has what recorded CC50 at 48 h?
> 100 µg/mL

Item CC(C)c1cc2c(c(O)c1O)[C@@]1(C)CCCC(C)(C)[C@@H]1[C@@H](O)C2=O [6-ALPHA-HYDROXYDEMETHYL-CRYPTOJAPONOL] has what recorded CC50 at 48 h?
> 100 µg/mL

Item `COc1c(C(C)C)cc2c(c1O)[C@@]1(C)CCCC(C)(C)[C@@H]1CC2` has what recorded CC50 at 48 h?
> 100 µg/mL
